molecular target: Human PD-L1/PD-1 (Homo sapiens, UniProt Q9NZQ7); construct: made in house; host or cells: HEK293T; assay: HTRF PD-1-Ig/PD-L1-His binding assay (human PD-L1); conditions: cluster symbol; read-out: HTRF IC50 cluster
Sequence (Q9NZQ7 with tags, fused parts or gaps): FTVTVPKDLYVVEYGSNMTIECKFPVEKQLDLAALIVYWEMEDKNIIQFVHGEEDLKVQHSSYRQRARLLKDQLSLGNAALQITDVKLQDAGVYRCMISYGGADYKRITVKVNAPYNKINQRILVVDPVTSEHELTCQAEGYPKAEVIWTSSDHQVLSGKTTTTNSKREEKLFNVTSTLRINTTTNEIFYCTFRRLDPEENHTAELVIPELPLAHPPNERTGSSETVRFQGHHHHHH
Positions of bridges follow the written chain, without caps; N, C: chain ends. Non-standard residues stand in square brackets, D forms with d. Residues, ends and D or L forms follow the SMILES beside them. Phe(2-Cl) = N[C@@H](Cc1ccccc1Cl)C(=O)O; Hyp = O=C(O)[C@@H]1C[C@@H](O)CN1; NMeNle = CCCC[C@H](NC)C(=O)O; NMeA = CN[C@@H](C)C(=O)O; Dab = NCC[C@H](N)C(=O)O; Sar = CNCC(=O)O
Below: a set of entries, each annotated with reported IC50.

In: Consider the compound shown here: CCCC[C@H]1C(=O)N(C)[C@@H](CCCC)C(=O)N[C@@H](CC(C)C)C(=O)N[C@H](C(=O)NCC(N)=O)CSCC(=O)N[C@@H](Cc2ccc(O)cc2)C(=O)N(C)[C@@H](C)C(=O)N[C@@H](CC(N)=O)C(=O)N2CCC[C@H]2C(=O)N[C@@H](CO)C(=O)N[C@@H](CCC(=O)O)C(=O)N2C[C@H](O)C[C@H]2C(=O)N[C@@H](Cc2c[nH]c3ccccc23)C(=O)N[C@@H](CCN)C(=O)N[C@@H](Cc2c[nH]c3ccccc23)C(=O)N1C [Example 5074] ({CH2CO}-Y[NMeA]NPSE[Hyp]W[Dab]W[NMeNle][NMeNle]LCG-NH2; thioether N-14) What is its recorded IC50?
Out: 0.385 to 6.74 nM

In: Consider the compound shown here: CCCC[C@H]1C(=O)N(C)[C@@H](CCCC)C(=O)N[C@@H](CCCNC(=N)N)C(=O)N[C@H](C(=O)NCC(N)=O)CSCC(=O)N[C@@H](Cc2ccccc2Cl)C(=O)N(C)[C@@H](C)C(=O)N[C@@H](CC(N)=O)C(=O)N2CCC[C@H]2C(=O)N[C@@H](Cc2cnc[nH]2)C(=O)N[C@@H](CC(C)C)C(=O)N(C)CC(=O)N[C@@H](Cc2c[nH]c3ccccc23)C(=O)N[C@@H](CO)C(=O)N[C@@H](Cc2c[nH]c3ccccc23)C(=O)N1C [Example 1101] ({CH2CO}-[Phe(2-Cl)][NMeA]NPHL[Sar]WSW[NMeNle][NMeNle]RCG-NH2; thioether N-14) What is its recorded IC50?
Out: > 30.5 nM

---

molecular target: LK35.2-hPD-L1 cells / PE-labeled PD-1-Ig (Homo sapiens); construct: expressed in transfected cells; host or cells: LK35.2 mouse B cell line; assay: LK35.2-hPD-L1 cell binding high-content screening assay; format: cell-based; details: cluster symbol; cell line of CBA not given (LK35.2-hPD-L1 or 293T-hPD-L1); read-out: CBA IC50 cluster
Sequence (Q9NZQ7 19-290): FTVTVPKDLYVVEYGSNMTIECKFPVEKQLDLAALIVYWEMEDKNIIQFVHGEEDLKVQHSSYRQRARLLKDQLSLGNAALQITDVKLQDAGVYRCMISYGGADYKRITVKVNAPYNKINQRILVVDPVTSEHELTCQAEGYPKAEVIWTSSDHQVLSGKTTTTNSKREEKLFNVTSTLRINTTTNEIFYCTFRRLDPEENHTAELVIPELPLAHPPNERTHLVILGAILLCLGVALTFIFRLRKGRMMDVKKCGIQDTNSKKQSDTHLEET
Positions of bridges follow the written chain, without caps; N, C: chain ends. Non-standard residues stand in square brackets, D forms with d. Residues, ends and D or L forms follow the SMILES beside them. Phe(4-CH2NH2) = NCc1ccc(C[C@H](N)C(=O)O)cc1; Phe(4-F) = N[C@@H](Cc1ccc(F)cc1)C(=O)O; Phe(4-Me) = Cc1ccc(C[C@H](N)C(=O)O)cc1; NMeF = CN[C@@H](Cc1ccccc1)C(=O)O; NMeNle = CCCC[C@H](NC)C(=O)O; Sar = CNCC(=O)O
ASSAY READOUT: IC50

{"COMPOUND": "CCCC[C@H]1C(=O)N(C)CC(=O)N[C@@H](CC(=O)O)C(=O)N[C@@H](C(C)C)C(=O)N(C)[C@@H](Cc2ccccc2)C(=O)N[C@@H](Cc2ccc(CN)cc2)C(=O)N(C)CC(=O)N[C@@H](Cc2c[nH]c3ccccc23)C(=O)N[C@@H](Cc2ccc(O)cc2)C(=O)N[C@@H](CC(C)C)C(=O)N[C@H](C(=O)NCC(N)=O)CSCC(=O)N[C@@H](Cc2ccc(F)cc2)C(=O)N(C)[C@@H](Cc2ccccc2)C(=O)N1C [Example 3123] ({CH2CO}-[Phe(4-F)][NMeF][NMeNle][Sar]DV[NMeF][Phe(4-CH2NH2)][Sar]WYLCG-NH2; thioether N-13)", "RECORDED MEASUREMENT": "0.158 to 4.71 nM"}

Query compound follows.
In: Consider the compound shown here: CCCC[C@H]1C(=O)N(C)CC(=O)N[C@@H](CC(=O)O)C(=O)N[C@@H](C(C)C)C(=O)N(C)[C@@H](Cc2ccccc2)C(=O)N[C@@H](Cc2ccc(O)cc2)C(=O)N(C)CC(=O)N[C@@H](Cc2c[nH]c3ccccc23)C(=O)N[C@@H](Cc2ccc(O)cc2)C(=O)N[C@@H](Cc2ccc(C)cc2)C(=O)N[C@H](C(=O)NCC(N)=O)CSCC(=O)N[C@@H](Cc2ccccc2)C(=O)N(C)[C@@H](Cc2ccccc2)C(=O)N1C [Example 3107] ({CH2CO}-F[NMeF][NMeNle][Sar]DV[NMeF]Y[Sar]WY[Phe(4-Me)]CG-NH2; thioether N-13) What is its recorded IC50?
Out: 4.78 to 72.9 nM
